assay: Clearance in Sprague-Dawley rat at 10 mg/kg, po measured upto 8 hrs by LC-MS/MS analysis; assay type: ADME, organism-based; conditions: in vivo

{"structure": "C=CC(=O)N1CCC(Oc2cc3c(Nc4cccc(Cl)c4F)ncnc3cc2O[C@H]2CCOC2)CC1", "unit spec": "mL/min", "CL/F": 2.96}

* * *

assay: Half life in Sprague-Dawley rat at 10 mg/kg, iv measured upto 8 hrs by LC-MS/MS analysis; assay type: ADME, organism-based; settings: in vivo

{"structure": "C=CC(=O)N1CCC(Oc2cc3c(Nc4cccc(Cl)c4F)ncnc3cc2O[C@H]2CCOC2)CC1", "half-life": "53.4 min"}

* * *

assay: Half life in Sprague-Dawley rat at 10 mg/kg, po measured upto 8 hrs by LC-MS/MS analysis; type: ADME, organism-based; conditions: in vivo
readout label: half-life (h)

{"structure": "C=CC(=O)N1CCC(Oc2cc3c(Nc4cccc(Cl)c4F)ncnc3cc2O[C@H]2CCOC2)CC1", "recorded measurement": 6.93}

* * *

experiment: Oral bioavailability in Sprague-Dawley rat at 10 mg/kg measured upto 8 hrs by LC-MS/MS analysis; assay type: ADME, organism-based; details: in vivo
readout label: bioavailability (%)

{"structure": "C=CC(=O)N1CCC(Oc2cc3c(Nc4cccc(Cl)c4F)ncnc3cc2O[C@H]2CCOC2)CC1", "unit spec": "%", "recorded measurement": 68}

* * *

assay: Clearance in Sprague-Dawley rat at 10 mg/kg, iv measured upto 8 hrs by LC-MS/MS analysis; format: ADME, organism-based; settings: in vivo
readout label: clearance (mL/min)

{"structure": "C=CC(=O)N1CCC(Oc2cc3c(Nc4cccc(Cl)c4F)ncnc3cc2O[C@H]2CCOC2)CC1", "readout label": "clearance", "recorded measurement": 2.32}

* * *

biological target: Voltage-gated inwardly rectifying potassium channel KCNH2 (Homo sapiens, UniProt Q12809); assay: Binding affinity to human ERG; format: toxicity
Sequence (Q12809 whole entry): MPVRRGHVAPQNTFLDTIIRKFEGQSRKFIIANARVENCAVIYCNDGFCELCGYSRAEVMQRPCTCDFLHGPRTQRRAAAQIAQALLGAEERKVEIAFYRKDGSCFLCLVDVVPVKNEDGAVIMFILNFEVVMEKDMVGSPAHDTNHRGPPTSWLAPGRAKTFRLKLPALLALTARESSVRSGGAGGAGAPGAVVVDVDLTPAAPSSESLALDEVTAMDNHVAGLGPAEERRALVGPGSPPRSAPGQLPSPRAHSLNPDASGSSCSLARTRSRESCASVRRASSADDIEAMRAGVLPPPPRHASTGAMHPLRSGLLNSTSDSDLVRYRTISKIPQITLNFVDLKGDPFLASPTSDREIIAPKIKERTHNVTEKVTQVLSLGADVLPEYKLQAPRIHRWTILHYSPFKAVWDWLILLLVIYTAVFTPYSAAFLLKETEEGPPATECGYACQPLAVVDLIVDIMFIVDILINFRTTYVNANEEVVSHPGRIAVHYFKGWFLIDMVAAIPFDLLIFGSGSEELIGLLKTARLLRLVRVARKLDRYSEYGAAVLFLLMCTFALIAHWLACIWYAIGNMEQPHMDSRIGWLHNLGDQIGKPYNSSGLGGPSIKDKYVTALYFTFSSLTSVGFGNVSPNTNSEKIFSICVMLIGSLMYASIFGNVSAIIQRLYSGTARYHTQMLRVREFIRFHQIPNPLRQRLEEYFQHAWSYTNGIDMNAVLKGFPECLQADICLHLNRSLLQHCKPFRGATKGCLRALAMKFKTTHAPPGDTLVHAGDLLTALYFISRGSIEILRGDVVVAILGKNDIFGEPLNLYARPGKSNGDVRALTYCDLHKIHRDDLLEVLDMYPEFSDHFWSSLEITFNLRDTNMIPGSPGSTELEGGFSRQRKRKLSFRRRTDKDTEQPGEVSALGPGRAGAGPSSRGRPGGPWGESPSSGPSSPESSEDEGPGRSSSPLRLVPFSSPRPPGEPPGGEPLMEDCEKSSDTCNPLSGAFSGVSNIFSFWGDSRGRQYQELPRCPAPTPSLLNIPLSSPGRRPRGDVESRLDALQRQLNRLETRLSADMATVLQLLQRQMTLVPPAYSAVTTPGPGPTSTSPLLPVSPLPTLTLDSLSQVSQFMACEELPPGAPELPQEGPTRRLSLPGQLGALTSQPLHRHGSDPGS
Attribute: IC50
readout label: IC50 (nM)

{"molecule": "C=CC(=O)N1CCC(Oc2cc3c(Nc4ccc(Cl)c(Cl)c4F)ncnc3cc2OC)CC1 [POZIOTINIB]", "unit spec": "nM", "bound sign": "=", "recorded measurement": 915}
{"molecule": "C=CC(=O)N1CCC(Oc2cc3c(Nc4cccc(Cl)c4F)ncnc3cc2O[C@H]2CCOC2)CC1", "unit spec": "nM", "bound sign": ">", "recorded measurement": 15000}
{"molecule": "C=CC(=O)N1CCC(Oc2cc3c(Nc4ccc(Cl)c(Cl)c4F)ncnc3cc2O[C@H]2CCOC2)CC1", "unit spec": "nM", "bound sign": "=", "recorded measurement": 1140}

* * *

Attribute: IC50
target: Epidermal growth factor receptor (Homo sapiens, UniProt P00533, D770-N771INS); assay: Inhibition of EGFR D770-N771 ins NPG mutant (unknown origin)
Sequence (P00533 whole entry, looked up, stated change not applied): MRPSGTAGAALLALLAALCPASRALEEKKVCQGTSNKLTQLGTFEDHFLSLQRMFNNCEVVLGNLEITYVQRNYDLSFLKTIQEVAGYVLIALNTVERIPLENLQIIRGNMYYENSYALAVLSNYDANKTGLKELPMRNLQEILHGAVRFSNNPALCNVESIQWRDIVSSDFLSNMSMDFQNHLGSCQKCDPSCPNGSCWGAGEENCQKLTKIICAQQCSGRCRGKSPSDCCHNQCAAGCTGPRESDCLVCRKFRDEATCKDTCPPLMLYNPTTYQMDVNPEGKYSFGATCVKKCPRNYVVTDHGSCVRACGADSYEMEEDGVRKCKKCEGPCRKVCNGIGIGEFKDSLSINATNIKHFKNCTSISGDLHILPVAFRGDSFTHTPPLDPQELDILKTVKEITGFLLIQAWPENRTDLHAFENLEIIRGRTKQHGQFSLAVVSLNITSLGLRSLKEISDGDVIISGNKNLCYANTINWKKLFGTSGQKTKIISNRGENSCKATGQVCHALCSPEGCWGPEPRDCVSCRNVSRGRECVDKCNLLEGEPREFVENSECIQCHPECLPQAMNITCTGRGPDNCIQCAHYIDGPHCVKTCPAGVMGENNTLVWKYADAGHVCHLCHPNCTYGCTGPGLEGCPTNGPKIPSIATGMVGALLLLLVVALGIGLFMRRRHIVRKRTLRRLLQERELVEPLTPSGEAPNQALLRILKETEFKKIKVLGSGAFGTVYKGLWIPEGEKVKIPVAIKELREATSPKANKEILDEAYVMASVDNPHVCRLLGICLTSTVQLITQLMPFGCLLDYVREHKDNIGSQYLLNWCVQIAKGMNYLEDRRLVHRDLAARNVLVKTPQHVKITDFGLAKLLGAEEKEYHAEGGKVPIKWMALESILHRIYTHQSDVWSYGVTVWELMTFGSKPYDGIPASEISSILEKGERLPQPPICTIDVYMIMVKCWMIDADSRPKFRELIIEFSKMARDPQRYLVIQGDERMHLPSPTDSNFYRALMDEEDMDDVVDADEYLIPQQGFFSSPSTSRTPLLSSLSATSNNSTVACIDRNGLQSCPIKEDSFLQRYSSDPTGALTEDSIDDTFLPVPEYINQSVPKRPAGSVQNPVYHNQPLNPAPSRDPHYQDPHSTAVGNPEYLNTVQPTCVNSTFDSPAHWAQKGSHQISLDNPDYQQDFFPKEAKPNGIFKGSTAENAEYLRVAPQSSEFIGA
readout label: IC50 (nM)

{"structure": "C=CC(=O)N1CCC(Oc2cc3c(Nc4ccc(Cl)c(Cl)c4F)ncnc3cc2O[C@H](C)CCCCCC)CC1", "readout label": "IC50", "recorded measurement": 272}
{"structure": "C=CC(=O)N1CCC(Oc2cc3c(Nc4ccc(Cl)c(Cl)c4F)ncnc3cc2O[C@H]2CCN(C)C2)CC1", "readout label": "IC50", "recorded measurement": 1.67}
{"structure": "C=CC(=O)N1CCC(Oc2cc3c(Nc4ccc(Cl)c(Cl)c4F)ncnc3cc2O[C@H](C)CC)CC1", "readout label": "IC50", "recorded measurement": 10.8}
{"structure": "C#Cc1cccc(Nc2ncnc3cc(O[C@H]4CCOC4)c(OC4CCN(C(=O)C=C)CC4)cc23)c1", "readout label": "IC50", "recorded measurement": 1.67}
{"structure": "C=CC(=O)N1CCC(Oc2cc3c(Nc4ccc(Cl)c(Cl)c4F)ncnc3cc2O[C@H]2CCOC2)CC1", "readout label": "IC50", "recorded measurement": 0.053}
{"structure": "O=C(/C=C/C(F)(F)F)N1CCC(Oc2cc3c(Nc4ccc(Cl)c(Cl)c4F)ncnc3cc2O[C@H]2CCOC2)CC1", "readout label": "IC50", "recorded measurement": 0.817}
{"structure": "C=CC(=O)N1CCC(Oc2cc3c(Nc4ccc(Cl)c(Cl)c4F)ncnc3cc2O[C@@H]2CCN(C)C2)CC1", "readout label": "IC50", "recorded measurement": 1.04}
{"structure": "C=CC(=O)N1CCC(Oc2cc3c(Nc4cccc(C#N)c4)ncnc3cc2O[C@H]2CCOC2)CC1", "readout label": "IC50", "recorded measurement": 10.7}
{"structure": "C=CC(=O)N1CCC(Oc2cc3c(Nc4ccc(Cl)c(Cl)c4F)ncnc3cc2OC2CCOCC2)CC1", "readout label": "IC50", "recorded measurement": 1.79}
{"structure": "C=CC(=O)N1CCC(Oc2cc3c(Nc4ccc(F)c(Cl)c4)ncnc3cc2O[C@H]2CCOC2)CC1", "readout label": "IC50", "recorded measurement": 0.153}
{"structure": "CN(C)C/C=C/C(=O)N1CCC(Oc2cc3c(Nc4ccc(Cl)c(Cl)c4F)ncnc3cc2O[C@@H]2CCOC2)CC1", "readout label": "IC50", "recorded measurement": 12.8}
{"structure": "C=CC(=O)N1CCC(Oc2cc3c(Nc4ccc(Cl)c(Cl)c4F)ncnc3cc2OC[C@@H]2CCCN2C)CC1", "readout label": "IC50", "recorded measurement": 18.9}
{"structure": "C=CC(=O)N1CCC(Oc2cc3c(Nc4ccc(Cl)c(Cl)c4F)ncnc3cc2O[C@@H](C)CC)CC1", "readout label": "IC50", "recorded measurement": 1.21}
{"structure": "C=CC(=O)N1CCC(Oc2cc3c(Nc4ccc(Cl)c(Cl)c4F)ncnc3cc2O[C@@H]2CCOC2)CC1", "readout label": "IC50", "recorded measurement": 0.24}
{"structure": "C=CC(=O)N1CCC(Oc2cc3c(Nc4ccc(F)c(F)c4F)ncnc3cc2O[C@H]2CCOC2)CC1", "readout label": "IC50", "recorded measurement": 0.403}
{"structure": "C=CC(=O)N1CCC(Oc2cc3c(Nc4ccc(Cl)c(Cl)c4F)ncnc3cc2OC[C@H]2CCCN2C)CC1", "readout label": "IC50", "recorded measurement": 83.5}
{"structure": "O=C(/C=C/C(F)(F)F)N1CCC(Oc2cc3c(Nc4ccc(Cl)c(Cl)c4F)ncnc3cc2O[C@@H]2CCOC2)CC1", "readout label": "IC50", "recorded measurement": 1.53}
